# Growth controlling degree (%) Japanese bulrush annotations
- System: japanese bulrush
- procedureSummary: Test Example 3: paddy pot test, application under submerged conditions
- Type: in vivo, Scirpus juncoides
- conditionDetails: active ingredient 250 g/ha; submerged application at 0.5 leaf stage; visually observed 14 days after application; 0 = non-treated, 100 = complete kill
- Excerpt: Paddy field soil was put into a 1/1,000,000 ha pot, and seed of barnyardgrass and japanese bulrush were sown and slightly covered with soil. Then, the pot was left to stand still in a greenhouse in a state where the depth of flooding water was from 0.5 to 1 cm, and one day or two days later, tubers of japanese ribbon wapato were planted. […]
Give the quantity in %, number only.

Sample records with Growth controlling degree (%) Japanese bulrush:
{"molecule": "CC(C)C(c1cnccc1Br)N(C)C(=O)Cc1ccccc1 (racemic) [I-110]", "reading": 90}
{"molecule": "CC(C)C(c1cnccc1C(F)(F)F)N(C)C(=O)OCc1ccccc1 (racemic) [I-111]", "reading": 10}
{"molecule": "CC(C)C(c1cnccc1C(F)(F)F)N(C)C(=O)Cc1ccccc1[N+](=O)[O-] (stereo not shown) [I-39]", "reading": 95}

Turning to the following molecule.
Look at this molecule and give its reported Growth controlling degree (%) Japanese bulrush. Cc1ccc(OCC(=O)N(C)C(c2cnccc2C(F)(F)F)C(C)C)cc1 (stereo not shown) [Compound I-239]
98

----------
- System: prickly sida
- procedureSummary: Test Example 2: soil surface treatment, upland pot test
- Assay type: in vivo, Sida spinosa L.
- conditionDetails: active ingredient 250 g/ha, observed 20th to 28th day
# Growth controlling degree (%) Prickly sida annotations
Give the quantity in %, number only.

Sample records with Growth controlling degree (%) Prickly sida:
{"molecule": "CC(C)C(c1cnccc1C(F)(F)F)N(C)C(=O)Cc1ccc(Cl)cc1 (stereo not drawn) [I-23]", "reading": 98}
{"molecule": "CC(C)C(c1cnccc1C(F)(F)F)N(C)C(=O)Cc1ccccc1F (stereo not drawn) [Compound I-25]", "reading": 100}
{"molecule": "COCC(=O)N(C)C(c1cnccc1C(F)(F)F)C(C)C (stereo not drawn) [I-195]", "reading": 30}

Turning to the following molecule.
Look at this molecule and give its reported Growth controlling degree (%) Prickly sida. CC(C)CC(=O)N(C)C(c1cnccc1C(F)(F)F)C(C)C (stereo not drawn) [I-193]
80

----------
# Growth controlling degree (%) Japanese bulrush annotations
- System: japanese bulrush
- procedureSummary: Test Example 3: paddy pot test, application under submerged conditions
- Type: in vivo, Scirpus juncoides
- conditionDetails: active ingredient 250 g/ha; submerged application at 0.5 leaf stage; visually observed 14 days after application; 0 = non-treated, 100 = complete kill
Give the quantity in %, number only.

{"compound": "CC(C)C(c1cnccc1C(F)(F)F)N(C)C(=O)COc1cccc(F)c1 (stereo not shown)", "assayedSystem": "japanese bulrush", "reading": 95}
{"compound": "CC(Sc1ccc(Cl)cc1)C(=O)N(C)C(c1cnccc1C(F)(F)F)C(C)C (mixture of isomers)", "assayedSystem": "japanese bulrush", "reading": 98}
{"compound": "CC(C)C(c1cnccc1C(F)(F)F)N(C)C(=O)CC1CCCCC1 (stereo not shown)", "assayedSystem": "japanese bulrush", "reading": 98}

Turning to the following compound.
Look at this compound and give its reported Growth controlling degree (%) Japanese bulrush. CC(C)C(c1cnccc1C(F)(F)F)N(C)C(=O)COc1cc([N+](=O)[O-])c(Cl)cc1Cl (stereo not shown)
20
